# TEST PROTOCOL: Inhibition of platelet-derived growth factor receptor
READOUT NAME: IC50 (µM)
Dear colleague, please return just the value in µM, with no unit written.

Name the reported IC50 value associated with the compound `Clc1cccc(Nc2cncc(-c3cncc(NCCCc4cccnc4)c3)n2)c1` 0.876

---

# ASSAYED SYSTEM: Cyclin-dependent kinase 4/cyclin D1 (Homo sapiens, UniProt P11802)
# Sequence (P11802 whole entry): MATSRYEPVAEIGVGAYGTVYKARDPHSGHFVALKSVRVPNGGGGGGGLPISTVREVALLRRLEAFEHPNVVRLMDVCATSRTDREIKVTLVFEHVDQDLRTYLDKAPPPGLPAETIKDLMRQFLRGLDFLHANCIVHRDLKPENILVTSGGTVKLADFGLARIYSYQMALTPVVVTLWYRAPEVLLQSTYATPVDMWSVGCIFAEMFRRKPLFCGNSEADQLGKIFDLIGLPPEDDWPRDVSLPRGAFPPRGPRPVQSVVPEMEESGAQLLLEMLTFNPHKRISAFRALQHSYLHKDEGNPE
# Sequence (P24385 whole entry, further chain): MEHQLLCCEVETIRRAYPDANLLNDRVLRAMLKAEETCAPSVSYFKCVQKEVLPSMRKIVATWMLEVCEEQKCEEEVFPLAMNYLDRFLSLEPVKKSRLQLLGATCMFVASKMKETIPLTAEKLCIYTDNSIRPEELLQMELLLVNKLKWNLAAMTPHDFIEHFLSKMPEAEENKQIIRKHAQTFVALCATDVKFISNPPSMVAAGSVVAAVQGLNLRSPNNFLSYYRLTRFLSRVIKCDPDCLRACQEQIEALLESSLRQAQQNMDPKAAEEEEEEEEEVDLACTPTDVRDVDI
# TEST PROTOCOL: Inhibition of cyclin dependent kinase 4-cyclinD1
# Assay type: protein-complex assay
READOUT NAME: IC50

I would be grateful if you could share the reported IC50 for `CN(C)CCNc1cncc(-c2cncc(Nc3cccc(Cl)c3)n2)c1` . > 10 µM

Source listed as ChEMBL document CHEMBL1140334.
